All values here come from paper PMC12136788.

Entries and their measured binding signal follow.
Target: T1, UNK ZnF1-3 (human, UniProt Q9C0B0 31-174)
T1 sequence: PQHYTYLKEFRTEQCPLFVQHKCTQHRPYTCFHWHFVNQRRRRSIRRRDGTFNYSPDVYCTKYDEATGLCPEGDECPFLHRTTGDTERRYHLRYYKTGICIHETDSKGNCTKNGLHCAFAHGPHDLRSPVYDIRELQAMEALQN
Test: nsRBNS (natural sequence RNA bind-n-seq); RBNS binding buffer (assumed for nsRBNS): 25 mM Tris pH 7.5, 150 mM KCl, 3 mM MgCl2, 0.01% Triton X-100, 500 ug/ml BSA, 20 U/ml SUPERase-In, 4 C; UNK is unkempt and MSI1 is Musashi-1; names of the RNAs are library labels; protein concentration not given here; high values mean tight binding
Over roughly 24,000 sequences, “enrichment r” has its median near 0.99; the highest 2% begin near 3.7. Not all results are given here.
Answer in enrichment R, number only, no unit symbol.

The cases that follow already have their binding signal on record.
- BINDER: "chr14:89338683:89338684:+_ENSG00000165533_ENST00000346301|hu_hu|hu_hu_hu_mus_False|58_108 (ssRNA) RNA: GGGAGUUCUACAGUCCGACGAUCGUGGUUGUUGUUGACCAGGGCCAGCCUGAAGCAUUGGUGGGCCAAGUUUGUAUCUCCUAUUCCCACAGCUAUGUGCCCCAGGUUGUACCAGACAUCAGCUGCCUCUUCUUCAUUUUCAGCCAACAGAGGAUUGAGCAUCA"
  READOUT UNITS: "enrichment R"
  binding signal: 0.492
- BINDER: "78432385_78432637_487_CDS_ENSG00000162613_ENST00000370768|human|control|control (ssRNA) RNA: GGGAGUUCUACAGUCCGACGAUCUUCAGGUGUUCCAGUUAACAUACAGGACCUUUCUGGAAGGCCACCACUGUCAGGAGCUAUCUGUAUUUUGCAUCCAGAUUCCUGUUGUAUGCGUGAGAUCUGUUCACCUCCUCUGCCAAUCAACAGAGGAUUGAGCAUCA"
  READOUT UNITS: "enrichment R"
  binding signal: 0.709

Need binding signal, item chr15:93570553:93570554:+_ENSG00000173575_ENST00000394196|hu_hu|motif|central (ssRNA) RNA: GGGAGUUCUACAGUCCGACGAUCUCUAAGGCCAUAGUGUAUCAUGUCAACCCUUGUUCACGUGCAGGUUUUAGGUGAUGCGGACUCCCUCUUUCUCAACCUGUUAUUUCUACCAACAAUGAAAUCUUUCAAAGCCAGACUCCACAACAGAGGAUUGAGCAUCA
0.941

Need binding signal, item chr5:134191040:134191041:+_ENSG00000181904_ENST00000394976|hu_hu|motif|central (ssRNA) RNA: GGGAGUUCUACAGUCCGACGAUCAAAAGCAGCAGUGCCACAGCCAUAACCAAGAUCGGCAAGACGGGAUAGAGCUUUAAUGCGGCCUGGAGGUCUGCCUGGGCUGACUUUGUAUCCCGCAGCUUUAGUUGUCCCCAAAGGUCUCAACAGAGGAUUGAGCAUCA
1.39

Need binding signal, item 137534387_137536831_709_CDS_ENSG00000094880_ENST00000394886|human|control|control (ssRNA) RNA: GGGAGUUCUACAGUCCGACGAUCCUCCUCUAUCAACUGCAACUCUGUGUAUAUAUGAGCCAGAAAAAACUCUUUCAUCCAGGUGUCUGGCAAAGACAGGAACUUCAGCAUCUCUUUGUCUGUGAUCAGGUUACAGAGUUCUAACAACAGAGGAUUGAGCAUCA
1.71

Need binding signal, item 136535675_136535795_2550_CDS_ENSMUSG00000030213_ENSMUST00000032335|mouse|control|control (ssRNA) RNA: GGGAGUUCUACAGUCCGACGAUCCUGAGGCUGAGAGGUCACGGCAACGGGCACAUGCAGGAUCACUGGCAAGGGCUGCAGAGAGAUUGUAGGCUGAGGGGUCCCACUAGGCACCUGAGUAGUGGCAACUACGGUGGCUGUGCUCAACAGAGGAUUGAGCAUCA
1.73

Need binding signal, item chr10:115881139:115881140:-_ENSG00000165813_ENST00000369287|hu_hu|motif|central (ssRNA) RNA: GGGAGUUCUACAGUCCGACGAUCAUAAAAAUAUUUUCACCAGGGUAGCAUAUAUAACAACAUUUACAUUAUUAAGGAUUCGGUUUUUUUCUUUUACUGAUAAAUCUUGGUUUAAAUUUGCAUGUAACAAUUUUUAGAAAAUAACAACAGAGGAUUGAGCAUCA
2.85
